Biological target: T1, purified recombinant IFNAR-1 extracellular fragment (human, UniProt P17181 28-436)
T1 construct: extracellular domain; also called soluble IFNAR-1; soluble IFNAR
T1 sequence (looked up): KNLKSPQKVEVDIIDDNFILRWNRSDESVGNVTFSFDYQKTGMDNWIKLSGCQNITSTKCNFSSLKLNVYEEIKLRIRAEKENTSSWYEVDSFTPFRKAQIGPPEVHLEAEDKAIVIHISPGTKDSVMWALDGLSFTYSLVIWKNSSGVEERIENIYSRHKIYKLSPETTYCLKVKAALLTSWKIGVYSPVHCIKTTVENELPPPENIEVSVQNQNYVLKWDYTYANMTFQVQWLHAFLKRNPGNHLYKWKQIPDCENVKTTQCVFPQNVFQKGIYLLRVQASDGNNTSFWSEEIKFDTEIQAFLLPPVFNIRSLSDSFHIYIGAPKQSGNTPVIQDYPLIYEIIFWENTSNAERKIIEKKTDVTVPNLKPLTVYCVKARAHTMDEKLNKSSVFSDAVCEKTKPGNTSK
Experiment: Biacore, response on IFNAR-1 (flow cell 2) divided by response on anti-human IgG Fc (flow cell 4)
measure: % activity relative to H3K1 (%)
Answer with a number only, understood to be in %.

## Input Give reported % activity relative to H3K1 value for M3 heavy chain with K1-D light chain (antibody, human IgG4, V domains shown, also called M3 K1-D) VH: EVQLLESGGGLVQPGGSLRLSCAFSGFTLSTSGMGIGWVRQAPGKGLEWVAHIWWDDDKYYNPSLKSRFTISRDTSKNTVYLQMNSLRAEDTAVYYCARNYYPYDAWFDYWGQGTLVTVS VL: DIQMTQSPSSLSASVGDRVTITCSASSSINSNHLNWYQQKPGKAPKLLIYRTSILASGVPSRFSGSGSGTSFTLTISSLQPEDFATYYCQQGSNIPFTFGQGTKVEIKR
## Output 30

## Input Give reported % activity relative to H3K1 value for DI M3 heavy chain with DI K1 light chain (antibody, human IgG4, V domains shown, also called DI M3 DI K1) VH: EVQLLESGGGLVQPGGSLRLSCAASGFTMSTSGMGIGWIRQTPGKGLEWVAHIWWDDDKYYNPSLKSRFTISKDTSKNTLYLQMNSLRAEDTAVYYCARNYYPYDAWFDYWGQGTLVTVS VL: DIQMTQSPSSLSASVGDRATITCSASSSINSNHLHWYLQKPGKAPKALIYRTSILASGIPSRFSGSGSGTDFTLTISSLQPEDTATYYCQQGSNIPFTFGQGTKVEIKR
## Output 20

## Input Give reported % activity relative to H3K1 value for M3-A heavy chain with K1 light chain (antibody, human IgG4, V domains shown, also called M3-A K1) VH: EVQLLESGGGLVQPGGSLRLSCAFSGFTLSTSGAGIGWVRQAPGKGLEWVAHIWWDDDKYYNPSLKSRFTISRDTSKNTVYLQMNSLRAEDTAVYYCARNYYPYDAWFDYWGQGTLVTVS VL: DIQMTQSPSSLSASVGDRVTITCSASSSINSNHLHWYQQKPGKAPKLLIYRTSILASGVPSRFSGSGSGTSFTLTISSLQPEDFATYYCQQGSNIPFTFGQGTKVEIKR
## Output 17

## Input Give reported % activity relative to H3K1 value for M3-AB heavy chain with K1-CD light chain (antibody, human IgG4, V domains shown, also called M3-A/B K1-C/D) VH: EVQLLESGGGLVQPGGSLRLSCAFSGFTLSTSGAGIGWVRQAPGKGLEWVAHIWWDDDKYYNPSLKARFTISRDTSKNTVYLQMNSLRAEDTAVYYCARNYYPYDAWFDYWGQGTLVTVS VL: DIQMTQSPSSLSASVGDRVTITCSASTSINSNHLNWYQQKPGKAPKLLIYRTSILASGVPSRFSGSGSGTSFTLTISSLQPEDFATYYCQQGSNIPFTFGQGTKVEIKR
## Output 23

## Input Give reported % activity relative to H3K1 value for M3 heavy chain with K1-C light chain (antibody, human IgG4, V domains shown, also called M3 K1-C) VH: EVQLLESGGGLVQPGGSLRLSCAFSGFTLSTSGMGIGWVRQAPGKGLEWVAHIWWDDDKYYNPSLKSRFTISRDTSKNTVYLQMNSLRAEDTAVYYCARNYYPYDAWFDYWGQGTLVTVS VL: DIQMTQSPSSLSASVGDRVTITCSASTSINSNHLHWYQQKPGKAPKLLIYRTSILASGVPSRFSGSGSGTSFTLTISSLQPEDFATYYCQQGSNIPFTFGQGTKVEIKR
## Output 97
